system: Streptococcus sp. 'group A'; experiment: Streptococcus pyogenes SK(-)GAS viability under kanamycin – luminescence, BacTiterGlo, confirmation, counter-screen for streptokinase expression inhibitor project, dose response (AID 1900); assay type: functional, organism-based
The source made the active and inactive calls.
Kindly supply the reported EC50 values for the records listed here.

# count of solved cases: 5
given_smiles=CCCSc1nsc(NC(=O)C(c2ccccc2)c2ccccc2)n1 measured_quantity=EC50 experimental_value="2730 nM (active)"
given_smiles=Cc1cc(C)n(-c2nc(NCCCO)c3c4c(sc3n2)CCCC4)n1 measured_quantity=EC50 experimental_value="25900 nM (active)"
given_smiles=CCOc1cc(CNc2ccc3c(c2)CCC3)ccc1OC measured_quantity=EC50 experimental_value="> 150000 nM (not active)"
given_smiles=O=C(NNc1nc(-c2ccc(F)cc2)cs1)c1ccccc1 measured_quantity=EC50 experimental_value="831 nM (active)"
given_smiles=O=C(Cc1ccccc1)N/N=C/c1cc(Br)cc(Cl)c1O measured_quantity=EC50 experimental_value="1050 nM (active)"

Now look at this entry.
May I ask what EC50 has been recorded for CCCCn1c(/C=N/Nc2nc3ccccc3[nH]2)nc2ccccc21 ? 1660 nM (active)

----------
Kindly supply the reported IC50 values for the records listed here.
target: Calpain-2 catalytic subunit (Sus scrofa, UniProt P43367); test: m-calpain protease blockers, concentration series – biochemical, fluorogenic peptide substrate, dose response (AID 1420); format: functional
Sequence (P43367 whole entry): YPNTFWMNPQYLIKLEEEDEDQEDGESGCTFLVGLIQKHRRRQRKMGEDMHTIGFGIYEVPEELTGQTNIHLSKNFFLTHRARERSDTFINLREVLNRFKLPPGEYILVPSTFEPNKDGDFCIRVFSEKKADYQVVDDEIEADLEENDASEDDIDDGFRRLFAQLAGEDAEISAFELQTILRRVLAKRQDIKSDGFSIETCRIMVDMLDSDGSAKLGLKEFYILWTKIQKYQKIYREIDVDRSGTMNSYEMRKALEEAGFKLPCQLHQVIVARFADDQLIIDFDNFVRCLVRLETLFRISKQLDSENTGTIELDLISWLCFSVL

# count of solved cases: 8
compound=N=C(N)N/N=C/c1ccc(OCc2ccc(Cl)cc2Cl)cc1 experimental_value="7.31 µM (not active)"
compound=CCN(CC)S(=O)(=O)c1ccc(C)c(NC(S)=NNC(=O)C2CC2)c1 experimental_value="> 50 µM (not active)"
compound=O=C(N1CCN(c2ccccn2)CC1)N1c2ccccc2Sc2ccccc21 experimental_value="4.55 µM (not active)"
compound=CCc1ccc2nc(NC(=O)Cn3cnc4ccccc4c3=O)sc2c1 experimental_value="11.7 µM (not active)"
compound=COc1cc(C(=O)NCc2ccc3c(c2)cc(C)n3C)cc(OC)c1OC experimental_value="> 50 µM (not active)"
compound="CCC(C(=O)c1ccccc1)N(C(=O)c1ccccc1Cl)N1C(=O)C2C3C=CC(C3)C2C1=O (centres undefined)" experimental_value="24.3 µM (not active)"
compound=O=C(Nc1cnn(Cc2ccc(F)cc2)c1)C(c1ccccc1)c1ccccc1 experimental_value="9.63 µM (not active)"
compound=CCOC(=O)C1(Cc2cccc(OC)c2)CCN(Cc2cccc(OCC)c2O)CC1 experimental_value="8.3 µM (not active)"

Form entry - test system: Calpain-2 catalytic subunit (Sus scrofa, UniProt P43367); read-out: IC50; compound: COCCCN=C(S)NNC(=O)C1CC1c1ccc(C(C)(C)C)cc1 (centres undefined) > 50 µM (not active)

----------
Kindly supply the reported EC50 values for the records listed here.
test: luciferase reporter signal suppression in cells – H4 neuroglioma cells, luminescence, dose response (AID 1990); assay type: functional, cell-based
Activity calls are given as the source filed them.

# count of solved cases: 2
given_smiles=CCCCN(CCCC)C(=S)N/N=C/c1c(C)nn(-c2ccccc2)c1O experimental_value="13.3 µM (active)"
given_smiles=CCOc1ccc(-c2nnc(SCC(=O)Nc3ccc4c(c3)c3ccccc3n4CC)n2N)cc1 experimental_value="42.3 µM (active)"

Each compound below has a recorded value; state its EC50.
1. N=C(N)N/N=C/c1ccc(OCc2ccc(Cl)cc2Cl)cc1
2. O=[N+]([O-])c1ccccc1S(=O)(=O)Nc1cccc2cccnc12
3. Cc1cc(N2CCN(S(=O)(=O)c3ccc(C)c(C)c3)CC2)c2ccccc2n1

> 120 µM (not active)
14.1 µM (active)
> 120 µM (not active)

May I ask what EC50 has been recorded for COc1cc(/N=C/c2c(O)[nH]c3ccccc23)cc(OC)c1OC ? < 0.1 µM (active)
